measured target: F508delCFTR (Homo sapiens, UniProt P13569, DEL508-508)
Construct: expressed in transfected cells; host or cells: CFBE41o- human lung-derived epithelial cells (CFBE4lo-F508delCFTR-HRP), doxycycline-inducible
Sequence (P13569 with tags, fused parts or gaps DEL508-508): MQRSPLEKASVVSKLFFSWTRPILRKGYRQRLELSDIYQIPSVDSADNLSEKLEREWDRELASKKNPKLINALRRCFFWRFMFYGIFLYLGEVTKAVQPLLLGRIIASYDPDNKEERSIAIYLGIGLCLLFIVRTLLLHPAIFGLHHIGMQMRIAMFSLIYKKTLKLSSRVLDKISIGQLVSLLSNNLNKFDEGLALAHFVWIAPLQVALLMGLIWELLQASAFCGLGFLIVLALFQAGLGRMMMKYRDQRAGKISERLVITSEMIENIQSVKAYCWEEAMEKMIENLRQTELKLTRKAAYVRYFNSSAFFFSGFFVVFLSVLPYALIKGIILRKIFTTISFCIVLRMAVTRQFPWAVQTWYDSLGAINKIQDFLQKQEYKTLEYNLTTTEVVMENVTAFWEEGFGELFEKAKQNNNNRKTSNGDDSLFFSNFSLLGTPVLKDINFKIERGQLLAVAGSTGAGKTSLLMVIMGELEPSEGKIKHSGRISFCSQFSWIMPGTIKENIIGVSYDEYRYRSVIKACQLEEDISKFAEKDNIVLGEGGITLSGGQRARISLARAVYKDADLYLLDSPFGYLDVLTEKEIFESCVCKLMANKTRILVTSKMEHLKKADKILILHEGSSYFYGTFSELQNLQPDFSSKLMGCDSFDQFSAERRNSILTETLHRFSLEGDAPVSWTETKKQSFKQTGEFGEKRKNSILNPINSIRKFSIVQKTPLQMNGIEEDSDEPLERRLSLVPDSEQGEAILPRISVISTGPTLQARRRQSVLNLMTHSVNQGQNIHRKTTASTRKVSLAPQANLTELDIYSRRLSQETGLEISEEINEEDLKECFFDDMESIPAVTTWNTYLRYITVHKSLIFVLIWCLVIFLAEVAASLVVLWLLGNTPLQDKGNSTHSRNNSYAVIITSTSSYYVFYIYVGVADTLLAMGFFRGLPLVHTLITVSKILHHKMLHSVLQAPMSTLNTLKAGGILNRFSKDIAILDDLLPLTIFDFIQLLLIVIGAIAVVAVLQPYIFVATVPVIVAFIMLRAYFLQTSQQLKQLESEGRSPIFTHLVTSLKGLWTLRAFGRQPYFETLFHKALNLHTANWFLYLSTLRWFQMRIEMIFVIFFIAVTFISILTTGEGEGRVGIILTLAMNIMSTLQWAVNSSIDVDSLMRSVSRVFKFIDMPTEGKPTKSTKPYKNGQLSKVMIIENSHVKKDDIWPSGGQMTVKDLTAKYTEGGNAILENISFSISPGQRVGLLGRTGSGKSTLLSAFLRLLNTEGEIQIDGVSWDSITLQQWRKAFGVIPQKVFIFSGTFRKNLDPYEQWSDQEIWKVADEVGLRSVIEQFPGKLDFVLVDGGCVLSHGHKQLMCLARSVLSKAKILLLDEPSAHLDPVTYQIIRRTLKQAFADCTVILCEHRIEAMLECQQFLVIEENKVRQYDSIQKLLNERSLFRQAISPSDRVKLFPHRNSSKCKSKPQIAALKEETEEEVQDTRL
run description: Cell Surface Expression-Horse Radish Peroxidase (CSE-HRP) Assay
Format: cell-based
condition: with co-corrector (2 μM of 3-[(2R,4R)-4-({[1-(2,2-difluoro-1,3-benzodioxol-5-yl)cyclopropyl]carbonyl}amino)-7-methoxy-3,4-dihydro-2H-chromen-2-yl]benzoic acid); read-out: EC50 (with co-corrector)
measure: EC50

COc1ncc(C2CCC2)cc1CN[C@H]1[C@H](C(C)(C)C)[C@@H](C(=O)O)N(C(=O)OC(C)C)[C@H]1c1ccccc1C(C)C | < 1000 nM
CC(C)(C)[C@H]1[C@H](NCc2ccc3c(c2)OC(F)(F)O3)[C@H](c2ccccc2)N(C(=O)C2CCCCC2)[C@@H]1C(=O)O | 1000 to 10000 nM
COc1ccc(C(F)(F)F)cc1CN[C@H]1[C@H](C(C)(C)C)[C@@H](C(=O)O)N(C(=O)CC2CCCCO2)[C@H]1c1ccccc1 (stereo partly drawn) | 1000 to 10000 nM
COc1ccc(C23CC(C2)C3)cc1CN[C@H]1[C@H](C(C)(C)C)[C@@H](C(=O)O)N(C(=O)[C@H]2CCC[C@H](OC)C2)[C@H]1c1ccccc1 | < 1000 nM

[ask] Form field: reported EC50 of `COc1cnc(C(C)(C)C)cc1CN[C@H]1[C@H](C(C)(C)C)[C@@H](C(=O)O)N(C(=O)C2CCCCC2)[C@H]1c1ccccc1`
[reply] 1000 to 10000 nM

[ask] Form field: reported EC50 of `COc1ncc(C(F)(F)F)cc1CN[C@H]1[C@H](C(C)(C)C)[C@@H](C(=O)O)N(C(=O)OC(C)C)[C@H]1c1ccccc1C1CC1`
[reply] < 1000 nM

====

measured target: F508delCFTR (Homo sapiens, UniProt P13569, DEL508-508)
Construct: expressed in transfected cells; host or cells: CFBE41o- human lung-derived epithelial cells (CFBE4lo-F508delCFTR-HRP), doxycycline-inducible
run description: Cell Surface Expression-Horse Radish Peroxidase (CSE-HRP) Assay;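 for Maximum % activity (without co-corrector): percent of the 2 µM on-plate positive control corrector response above DMSO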
Type: cell-based
condition: test compound without co-corrector; maximum at any tested concentration, normalized to on-plate positive control; read-out: Maximum % activity (without co-corrector)
measure: Emax

COc1cccc([C@@H]2[C@H](NCc3ccc(Cl)cc3OC)[C@@H](C(C)(C)C)[C@H](C(=O)O)N2C(=O)C2CCCCC2)n1 (racemic) | 100 to 200%
COc1ccc(OC(F)(F)F)cc1CN[C@H]1[C@H](C(C)(C)C)[C@@H](C(=O)O)N(C(=O)C2CCCCC2)[C@H]1c1cccnc1OC | 100 to 200%
CC(C)(C)[C@@H]1[C@@H](NCc2cccnc2N2CCOCC2)[C@@H](c2ccccc2)N(C(=O)C2CCCCC2)[C@H]1C(=O)O (racemic) | < 100%
Cc1cc(C(F)(F)F)cc(N[C@@H]2[C@@H](C(C)(C)C)[C@H](C(=O)O)N(C(=O)C3CCCCC3)[C@@H]2c2cccnc2N(C)C)n1 (racemic) | < 100%
C=CCOC(=O)N1[C@H](C(=O)O)[C@@H](C(C)(C)C)[C@H](NCc2cc(C(C)(C)C)ccc2OC)[C@@H]1c1ccccc1 | > 200%

[ask] Form field: reported Emax of `CC(C)Oc1ccc(Cl)cc1CN[C@H]1[C@H](C(C)(C)C)[C@@H](C(=O)O)N(C(=O)C2CCCCC2)[C@H]1c1ccccc1`
[reply] < 100%

[ask] Form field: reported Emax of `COc1cc(C(F)(F)F)ccc1CN[C@@H]1[C@@H](C(C)(C)C)[C@H](C(=O)O)N(C(=O)[C@@H](OC)c2ccccc2)[C@@H]1c1ccccc1`
[reply] < 100%

[ask] Form field: reported Emax of COc1ccc(C(C)(C)C)cc1CN[C@H]1[C@H](C(C)(C)C)[C@@H](C(=O)O)N(C(=O)C2Cc3ccccc3O2)[C@H]1c1cccnc1N(C)C (single isomer, unassigned)
[reply] < 100%

[ask] Form field: reported Emax of `CC(C)(C)[C@H]1[C@H](NCc2ccc(C(F)(F)F)cc2F)[C@H](c2ccccc2)N(C(=O)C2CCCCC2)[C@@H]1C(=O)O`
[reply] < 100%

[ask] Form field: reported Emax of COc1ccc(C(F)(F)F)cc1CN[C@@H]1[C@@H](C(C)(C)C)[C@H](C(=O)O)N(C(=O)C2CCCCC2)[C@@H]1c1ccccn1 (racemic)
[reply] < 100%

[ask] Form field: reported Emax of CC(C)(C)[C@@H]1[C@@H](Nc2cc(Cl)ccn2)[C@@H](c2ccccc2)N(C(=O)C2CCCCC2)[C@H]1C(=O)O (racemic)
[reply] < 100%

====

measured target: F508delCFTR (Homo sapiens, UniProt P13569, DEL508-508)
Construct: expressed in transfected cells; host or cells: CFBE41o- human lung-derived epithelial cells (CFBE4lo-F508delCFTR-HRP), doxycycline-inducible
run description: Cell Surface Expression-Horse Radish Peroxidase (CSE-HRP) Assay;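 for Maximum % activity (without co-corrector): percent of the 2 µM on-plate positive control corrector response above DMSO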
Type: cell-based
condition: CSE-HRP; without co-corrector; maximum at any tested concentration, normalized to on-plate positive control; read-out: Maximum % activity (without co-corrector)
Description: Cell Surface Expression-Horse Radish Peroxidase (CSE-HRP) Assay The development was achieved by expressing the F508delCFTR mutation along with a horseradish peroxidase (HRP) in the fourth exofacial loop, and then measuring the HRP activity using luminescence readout from these cells, CFBE4lo-F508delCFTR-HRP, that were incubated overnight with the test corrector compounds, either without or with the co-corrector. […] The raw counts from the experiment were analyzed using Accelrys® Assay Explorer v3.3. […]
Let's look at some molecules and their measured Emax.

COc1ccc(C2(C)CCC2)cc1CN[C@H]1[C@H](C(C)(C)C)[C@@H](C(=O)O)N(C(=O)[C@@H]2CCCO2)[C@H]1c1cccnc1N(C)C | > 200%

[ask] Lab request: please report Emax under test system F508delCFTR (Homo sapiens, UniProt P13569, DEL508-508) for `COc1ccc(C(C)(C)C)cc1CN[C@H]1[C@H](C(C)(C)C)[C@@H](C(=O)O)N(C(=O)[C@@]2(C)COc3cc4c(cc32)OC(F)(F)O4)[C@H]1c1cccnc1OC`
[reply] < 100%

[ask] Lab request: please report Emax under test system F508delCFTR (Homo sapiens, UniProt P13569, DEL508-508) for COc1ccc(C(F)(F)F)cc1CN[C@@H]1[C@@H](C(C)(C)C)[C@H](C(=O)O)N(C(=O)C2CCCOC2)[C@@H]1c1ccccc1N(C)C (mixture of isomers)
[reply] > 200%

====

Let's look at some compounds and their measured pEC50.
measured target: F508delCFTR (Homo sapiens, UniProt P13569, DEL508-508)
Construct: expressed in transfected cells; host or cells: CFBE41o- human lung-derived epithelial cells (CFBE4lo-F508delCFTR-HRP), doxycycline-inducible
run description: Cell Surface Expression-Horse Radish Peroxidase (CSE-HRP) Assay
Type: cell-based
condition: with co-corrector (2 μM of 3-[(2R,4R)-4-({[1-(2,2-difluoro-1,3-benzodioxol-5-yl)cyclopropyl]carbonyl}amino)-7-methoxy-3,4-dihydro-2H-chromen-2-yl]benzoic acid); read-out: EC50 (with co-corrector)
pEC50: −log10 of the molar value.

[ask] Lab request: please report pEC50 under test system F508delCFTR (Homo sapiens, UniProt P13569, DEL508-508) for `COc1ccc(-c2ccccc2)cc1CN[C@H]1[C@H](C(C)(C)C)[C@@H](C(=O)O)N(C(=O)[C@H]2CCCCO2)[C@H]1c1cccnc1N(C)C`
[reply] 5.00 to 6.00

[ask] Lab request: please report pEC50 under test system F508delCFTR (Homo sapiens, UniProt P13569, DEL508-508) for COc1cc(C(F)(F)F)cc(N[C@@H]2[C@@H](C(C)(C)C)[C@H](C(=O)O)N(C(=O)OC(C)C)[C@@H]2c2ccccc2)n1 (racemic)
[reply] 5.00 to 6.00

[ask] Lab request: please report pEC50 under test system F508delCFTR (Homo sapiens, UniProt P13569, DEL508-508) for COc1ccc(C(F)(F)F)cc1CN[C@H]1[C@H](C(C)(C)C)[C@@H](C(=O)O)N(C(=O)[C@H]2OCC[C@H]2C(C)C)[C@H]1c1ccccc1 (relative stereo)
[reply] 5.00 to 6.00

====

Let's look at some compounds and their measured Emax.
measured target: F508delCFTR (Homo sapiens, UniProt P13569, DEL508-508)
Construct: expressed in transfected cells; host or cells: CFBE41o- human lung-derived epithelial cells (CFBE4lo-F508delCFTR-HRP), doxycycline-inducible
run description: Cell Surface Expression-Horse Radish Peroxidase (CSE-HRP) Assay;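 for Maximum % activity (without co-corrector): percent of the 2 µM on-plate positive control corrector response above DMSO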
Format: cell-based
condition: CSE-HRP; without co-corrector; maximum at any tested concentration, normalized to on-plate positive control; read-out: Maximum % activity (without co-corrector)

COc1ccc(C(C)(C)C)cc1CN[C@H]1[C@H](C(C)(C)C)[C@@H](C(=O)O)N(C(=O)Cc2cc(F)ccc2F)[C@H]1c1ccccc1 | > 200%
COC(=O)[C@H](C)Cc1cnc(OC)c(CN[C@H]2[C@H](C(C)(C)C)[C@@H](C(=O)O)N(C(=O)C3CCCCC3)[C@H]2c2ccccc2)c1 | < 100%

[ask] Form field: reported Emax of `COc1ccc(OC(F)(F)F)cc1CN[C@H]1[C@H](C(C)(C)C)[C@@H](C(=O)O)N(C(=O)C2CCCCC2)[C@H]1c1ccccc1`
[reply] > 200%
